Source listed as patent US20230312550A1.

Entries and their measured hFAP Binding assay k(off) follow.
- EXPERIMENTAL SYSTEM: UniProtKB Q12884
- Sequence (Q12884 39-757): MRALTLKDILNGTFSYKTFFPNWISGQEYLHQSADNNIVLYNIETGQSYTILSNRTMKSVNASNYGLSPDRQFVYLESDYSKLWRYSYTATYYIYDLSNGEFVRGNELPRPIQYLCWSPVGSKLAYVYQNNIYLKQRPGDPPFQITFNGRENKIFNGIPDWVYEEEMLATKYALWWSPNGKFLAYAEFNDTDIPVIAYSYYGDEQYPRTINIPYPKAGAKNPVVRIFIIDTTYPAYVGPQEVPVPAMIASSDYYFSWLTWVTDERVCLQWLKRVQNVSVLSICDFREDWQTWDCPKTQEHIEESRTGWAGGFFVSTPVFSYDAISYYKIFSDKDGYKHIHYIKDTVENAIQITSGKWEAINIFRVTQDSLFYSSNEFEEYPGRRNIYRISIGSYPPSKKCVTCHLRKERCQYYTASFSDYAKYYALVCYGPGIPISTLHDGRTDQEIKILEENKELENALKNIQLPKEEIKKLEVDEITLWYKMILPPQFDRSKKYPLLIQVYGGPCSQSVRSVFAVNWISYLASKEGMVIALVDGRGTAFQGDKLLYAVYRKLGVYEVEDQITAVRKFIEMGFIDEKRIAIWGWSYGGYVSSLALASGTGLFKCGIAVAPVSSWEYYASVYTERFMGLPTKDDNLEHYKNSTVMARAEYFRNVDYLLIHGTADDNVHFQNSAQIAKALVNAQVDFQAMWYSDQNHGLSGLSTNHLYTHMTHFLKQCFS
- PROTOCOL DESCRIPTION: hFAP binding assay (surface plasmon resonance)
- STATED CONDITIONS: SPR, 20° C., single cycle kinetics
The reply should contain only the number, in s⁻¹.

Field: example entries. Status: answers known.
CC1(C)Cc2c(-c3ccc4nccc(C(=O)NCC(=O)N5CSC[C@H]5C#N)c4c3)cnn2C1    0.00042
Cc1nc(C)c(-c2ccc3nccc(C(=O)NCC(=O)N4CSC[C@H]4C#N)c3c2)o1    0.00017
N#C[C@@H]1CSCN1C(=O)CNC(=O)c1ccnc2ccc(N3CCC(F)CC3)cc12    0.000046
N#C[C@@H]1CSCN1C(=O)CNC(=O)c1ccnc2ccc(N3CC(CC(F)F)C3)cc12    0.00051
N#C[C@@H]1CSCN1C(=O)CNC(=O)c1ccnc2ccc(N3CC(CC(F)(F)F)C3)cc12    0.00029
Cc1nn(C2CCOCC2)c(C)c1-c1ccc2nccc(C(=O)NCC(=O)N3CSC[C@H]3C#N)c2c1    0.000076
CS(=O)(=O)C[C@@H]1CN(c2ccc3nccc(C(=O)NCC(=O)N4CSC[C@H]4C#N)c3c2)CCO1    0.000099
COC1(C)CCN(c2ccc3nccc(C(=O)NCC(=O)N4CSC[C@H]4C#N)c3c2)CC1    0.000054

Q. Recorded hFAP Binding assay k(off) for N#C[C@@H]1CSCN1C(=O)CNC(=O)c1ccnc2ccc(N3CCO[C@@H](C(F)(F)F)C3)cc12 , please?
A. 0.00016

Q. And then CC1(C)CCN(c2ccc3nccc(C(=O)NCC(=O)N4CSC[C@H]4C#N)c3c2)C1 , what is it?
A. 0.000089

Q. Now consider CC(C)OC1CCN(c2ccc3nccc(C(=O)NCC(=O)N4CSC[C@H]4C#N)c3c2)CC1 and answer again.
A. 0.000019

Q. Next up: N#C[C@@H]1CSCN1C(=O)CNC(=O)c1ccnc2ccc(N3CCC4(CC3)COC4)cc12
A. 0.000026

Q. Here is the next compound: N#C[C@@H]1CSCN1C(=O)CNC(=O)c1ccnc2ccc(N3CC4(CCCC4(F)F)C3)cc12
A. 0.000078

###

- PROTOCOL DESCRIPTION: Caco-2 cell permeability
- STATED CONDITIONS: human
Listed below: Papp A→B values for each entry.
I only need the number, in ×10⁻⁶ cm/s, no unit after it.

A selection of reference data follows.
N#C[C@@H]1CSCN1C(=O)CNC(=O)c1ccnc2ccc(N3CC(CF)C3)cc12    1.9
C[C@H]1CCCN(c2ccc3nccc(C(=O)NCC(=O)N4CSC[C@H]4C#N)c3c2)C1=O (single isomer, unassigned)    0.4
N#C[C@@H]1CSCN1C(=O)CNC(=O)c1ccnc2ccc(N3CCOC(F)(F)C3)cc12    1.6
N#C[C@@H]1CSCN1C(=O)CNC(=O)c1ccnc2ccc(N3CCC(=O)CC3)cc12    34
N#C[C@@H]1CSCN1C(=O)CNC(=O)c1ccnc2ccc(N3CCC4(CC3)COC4)cc12    22
N#C[C@@H]1CSCN1C(=O)CNC(=O)c1ccnc2ccc(N3CCOC4(CCOCC4)C3)cc12    0.46
N#C[C@@H]1CSCN1C(=O)CNC(=O)c1ccnc2ccc(N3CCO[C@H](C(F)(F)F)C3)cc12    1.8
CS(=O)(=O)C[C@H]1CN(c2ccc3nccc(C(=O)NCC(=O)N4CSC[C@H]4C#N)c3c2)CCO1    0.12

Q. Fill in the blank: the reported Papp A→B of N#C[C@@H]1CSCN1C(=O)CNC(=O)c1ccnc2ccc(N3C4CCC3COC4)cc12 is ____.
A. 0.71

###

- EXPERIMENTAL SYSTEM: FAP (Mus musculus (Mouse), UniProt P97321)
- Sequence (P97321 24-761): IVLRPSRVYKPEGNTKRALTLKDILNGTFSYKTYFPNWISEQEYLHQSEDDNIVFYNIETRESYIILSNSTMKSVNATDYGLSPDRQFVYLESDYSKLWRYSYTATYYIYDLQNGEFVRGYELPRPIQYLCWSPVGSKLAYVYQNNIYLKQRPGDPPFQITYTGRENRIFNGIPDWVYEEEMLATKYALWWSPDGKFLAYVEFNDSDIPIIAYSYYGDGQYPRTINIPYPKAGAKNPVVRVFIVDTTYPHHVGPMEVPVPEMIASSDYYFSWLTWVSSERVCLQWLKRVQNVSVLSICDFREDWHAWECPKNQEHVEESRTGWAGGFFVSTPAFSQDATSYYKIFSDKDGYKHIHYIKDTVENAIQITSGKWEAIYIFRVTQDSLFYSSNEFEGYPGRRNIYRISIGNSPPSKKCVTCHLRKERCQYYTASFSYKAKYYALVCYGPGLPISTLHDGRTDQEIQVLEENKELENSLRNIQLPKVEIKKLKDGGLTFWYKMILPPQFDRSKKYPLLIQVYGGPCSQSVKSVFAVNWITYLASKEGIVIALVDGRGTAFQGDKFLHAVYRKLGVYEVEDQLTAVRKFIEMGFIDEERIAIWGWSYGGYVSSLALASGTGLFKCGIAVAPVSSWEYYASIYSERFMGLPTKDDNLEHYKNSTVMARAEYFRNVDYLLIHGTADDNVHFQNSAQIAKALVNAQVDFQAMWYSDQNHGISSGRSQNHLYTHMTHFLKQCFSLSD
- PROTOCOL DESCRIPTION: FAP plasma inhibition assay, mouse plasma
- STATED CONDITIONS: mouse plasma diluted 1:67, Ala-Pro-AMC 75 μM
IC50 listing for selected compounds.
Enter your answer as a number in nM; do not include the unit.

Previously resolved entries follow.
COC1CCN(c2ccc3nccc(C(=O)NCC(=O)N4CSC[C@H]4C#N)c3c2)CC1    0.2
N#C[C@@H]1CSCN1C(=O)CNC(=O)c1ccnc2ccc(-c3cnc4n3CCCC4)cc12    0.4
C[C@@H]1CCCN(c2ccc3nccc(C(=O)NCC(=O)N4CSC[C@H]4C#N)c3c2)C1=O (single isomer, unassigned)    0.3

Q. Give its IC50 value. Item: C[C@@H]1OCCN(c2ccc3nccc(C(=O)NCC(=O)N4CSC[C@H]4C#N)c3c2)[C@H]1C
A. 0.4

Q. CN1CCC(F)(c2ccc3nccc(C(=O)NCC(=O)N4CSC[C@H]4C#N)c3c2)CC1 , same question.
A. 1.4

Q. Cool, now CC1(C)CCN(c2ccc3nccc(C(=O)NCC(=O)N4CSC[C@H]4C#N)c3c2)C(=O)O1
A. 0.8

Q. Continue with N#C[C@@H]1CSCN1C(=O)CNC(=O)c1ccnc2ccc(-c3cnn(C4CCOCC4)c3)cc12
A. 0.2

###

Record type: pIC50 measurement. Applies to: human dipeptidylpeptidase 9 (hDPP9) (Homo sapiens (Human), UniProt Q86TI2)
Units for pIC50: none; it is -log10 of a concentration expressed in mol/L.

Please review the entries below; each comes with its answer.
N#C[C@@H]1CSCN1C(=O)CNC(=O)c1ccnc2ccc(N3CCO[C@H](CF)C3)cc12    5.72
C[C@@H]1CN(c2ccc3nccc(C(=O)NCC(=O)N4CSC[C@H]4C#N)c3c2)C[C@@H](C)O1    5.85

Let's switch to this molecule now.
Q. Quick one: pIC50 of N#C[C@@H]1CSCN1C(=O)CNC(=O)c1ccnc2ccc(N3CCO[C@@H](CF)C3)cc12 ?
A. 6.02

###

- PROTOCOL DESCRIPTION: Caco-2 cell permeability
- STATED CONDITIONS: human
PROPERTY MEASURED: Papp A→B (×10⁻⁶ cm/s)
Kindly answer with a numeric value in ×10⁻⁶ cm/s, unit omitted.

Worked examples follow.
CC1(C)CCN(c2ccc3nccc(C(=O)NCC(=O)N4CSC[C@H]4C#N)c3c2)CC1 [Example 33]    7.5
C[C@@H]1CN(c2ccc3nccc(C(=O)NCC(=O)N4CSC[C@H]4C#N)c3c2)C[C@H](C)[C@@H]1O [Example 7]    0.34
N#C[C@@H]1CSCN1C(=O)CNC(=O)c1ccnc2ccc(N3CC(N4CCOCC4)C3)cc12 [Example 122]    0.2

Q. Can you look up the measured Papp A→B of N#C[C@@H]1CSCN1C(=O)CNC(=O)c1ccnc2ccc(N3CCCCO3)cc12 [Example 1] for me?
A. 4.7

###

- PROTOCOL DESCRIPTION: Kinetic solubility
- STATED CONDITIONS: kinetic from dmso stock, Solubility, kinetic solubility; n = 1 or average of n = 2-3
List of log10 solubility values.
Plainly stated, the numbers are log10 of solubility given in µM.

Q. # query: log10 solubility of entry C[C@H]1COCCCN1c1ccc2nccc(C(=O)NCC(=O)N3CSC[C@H]3C#N)c2c1
A. 2.84

Q. Next molecule up: N#C[C@@H]1CSCN1C(=O)CNC(=O)c1ccnc2cc(Cl)c(N3CCOCC3)cc12
A. 2.04

Q. Record: N#C[C@@H]1CSCN1C(=O)CNC(=O)c1ccnc2ccc(N3CCC[C@@H]3C3CC3)cc12 (single isomer, unassigned)
A. 1.93

###

Quick record: pIC50, Prolyl endopeptidase, Prolyl Oligopeptidase (hPREP) (Homo sapiens (Human)).
# pIC50: negative log10 of molar concentration; output just the value

The following molecules have reported results that may help.
N#C[C@@H]1CSCN1C(=O)CNC(=O)c1ccnc2ccc(N3CCC4(CC4)C3)cc12    6.47
C[C@H]1CCN(c2ccc3nccc(C(=O)NCC(=O)N4CSC[C@H]4C#N)c3c2)CCO1    6.55
N#C[C@@H]1CSCN1C(=O)CNC(=O)c1ccnc2ccc(N3CC(CCF)C3)cc12    6.35

Q. So what's the measured pIC50 for this one? N#C[C@@H]1CSCN1C(=O)CNC(=O)c1ccnc2ccc(-n3ccc4c3CCCC4)cc12
A. 6.64

Q. Now give it for CC1(C)CCCN(c2ccc3nccc(C(=O)NCC(=O)N4CSC[C@H]4C#N)c3c2)C1=O too.
A. 5.68

Q. Again, but for N#C[C@@H]1CSCN1C(=O)CNC(=O)c1ccnc2ccc(N3CCOC4(CCOCC4)C3)cc12
A. 5.96

Q. Then what about the molecule N#C[C@@H]1CSCN1C(=O)CNC(=O)c1ccnc2ccc(N3CCC4(CC3)OCCCO4)cc12 ?
A. 6.22

Q. Here is the next molecule: N#C[C@@H]1CSCN1C(=O)CNC(=O)c1ccnc2ccc(-n3ncc4c3CCCC4)cc12
A. 6.64
